All figures here come from ChEMBL document CHEMBL3585315.

# Species: Mus musculus
# testDescription: animal or person
# conditionNotes: PC-3, po, 24 h, read-out: INH
measuredProperty: inhibition in vivo at 100 mg/kg (%)
Give the value in % but do not write % after it.

structureSmiles | inhibition in vivo at 100 mg/kg / %
CC(C)(O)c1ccc(-c2cnc3c(n2)N(CCC2CCOCC2)C(=O)CN3)cn1 | 59

Enquiry: Which value of inhibition in vivo at 100 mg/kg has been reported for `CC(C)(O)c1ccc(-c2cnc3c(n2)N(CC2CCOCC2)CC(=O)N3)cn1` in the records?
Return: 83

Enquiry: Which value of inhibition in vivo at 100 mg/kg has been reported for `CO[C@H]1CC[C@@H](N2CC(=O)Nc3ncc(-c4ccc(C(C)(C)O)nc4)nc32)CC1` in the records?
Return: 70

Enquiry: Which value of inhibition in vivo at 100 mg/kg has been reported for `COCCN1C(=O)CNc2ncc(-c3ccc(C(C)(C)O)nc3)nc21` in the records?
Return: 91

Enquiry: Which value of inhibition in vivo at 100 mg/kg has been reported for `CO[C@H]1CC[C@H](N2CC(=O)Nc3ncc(-c4ccc(C(C)(C)O)nc4)nc32)CC1` in the records?
Return: 85

Enquiry: Which value of inhibition in vivo at 100 mg/kg has been reported for `CC(C)(O)c1ccc(-c2cnc3c(n2)N(CCC2CCOCC2)CC(=O)N3)cn1` in the records?
Return: 0

###

# Organism: Mus musculus
# testDescription: animal or person
# conditionNotes: PC-3, po, 2 h, read-out: INH
Below is a list of entries, each paired with its recorded inhibition in vivo at 100 mg/kg value.
Give the value in % but do not write % after it.

Solved entries:
structureSmiles | resultUnit | inhibition in vivo at 100 mg/kg
CO[C@H]1CC[C@H](N2CC(=O)Nc3ncc(-c4ccc(C(C)(C)O)nc4)nc32)CC1 | % | 87
CC(C)(O)c1ccc(-c2cnc3c(n2)N(CCC2CCOCC2)C(=O)CN3)cn1 | % | 71
CC(C)(O)c1ccc(-c2cnc3c(n2)N(CCC2CCOCC2)CC(=O)N3)cn1 | % | 87
CO[C@H]1CC[C@@H](N2CC(=O)Nc3ncc(-c4ccc(C(C)(C)O)nc4)nc32)CC1 | % | 80

Moving on to another molecule below.
Enquiry: Which value of inhibition in vivo at 100 mg/kg has been reported for `CC(C)(O)c1ccc(-c2cnc3c(n2)N(CC2CCOCC2)CC(=O)N3)cn1` in the records?
Return: 88

###

# testTarget: Phosphatidylinositol 4,5-bisphosphate 3-kinase catalytic subunit alpha isoform (Homo sapiens, UniProt P42336)
# Sequence (P42336 whole entry, canonical isoform): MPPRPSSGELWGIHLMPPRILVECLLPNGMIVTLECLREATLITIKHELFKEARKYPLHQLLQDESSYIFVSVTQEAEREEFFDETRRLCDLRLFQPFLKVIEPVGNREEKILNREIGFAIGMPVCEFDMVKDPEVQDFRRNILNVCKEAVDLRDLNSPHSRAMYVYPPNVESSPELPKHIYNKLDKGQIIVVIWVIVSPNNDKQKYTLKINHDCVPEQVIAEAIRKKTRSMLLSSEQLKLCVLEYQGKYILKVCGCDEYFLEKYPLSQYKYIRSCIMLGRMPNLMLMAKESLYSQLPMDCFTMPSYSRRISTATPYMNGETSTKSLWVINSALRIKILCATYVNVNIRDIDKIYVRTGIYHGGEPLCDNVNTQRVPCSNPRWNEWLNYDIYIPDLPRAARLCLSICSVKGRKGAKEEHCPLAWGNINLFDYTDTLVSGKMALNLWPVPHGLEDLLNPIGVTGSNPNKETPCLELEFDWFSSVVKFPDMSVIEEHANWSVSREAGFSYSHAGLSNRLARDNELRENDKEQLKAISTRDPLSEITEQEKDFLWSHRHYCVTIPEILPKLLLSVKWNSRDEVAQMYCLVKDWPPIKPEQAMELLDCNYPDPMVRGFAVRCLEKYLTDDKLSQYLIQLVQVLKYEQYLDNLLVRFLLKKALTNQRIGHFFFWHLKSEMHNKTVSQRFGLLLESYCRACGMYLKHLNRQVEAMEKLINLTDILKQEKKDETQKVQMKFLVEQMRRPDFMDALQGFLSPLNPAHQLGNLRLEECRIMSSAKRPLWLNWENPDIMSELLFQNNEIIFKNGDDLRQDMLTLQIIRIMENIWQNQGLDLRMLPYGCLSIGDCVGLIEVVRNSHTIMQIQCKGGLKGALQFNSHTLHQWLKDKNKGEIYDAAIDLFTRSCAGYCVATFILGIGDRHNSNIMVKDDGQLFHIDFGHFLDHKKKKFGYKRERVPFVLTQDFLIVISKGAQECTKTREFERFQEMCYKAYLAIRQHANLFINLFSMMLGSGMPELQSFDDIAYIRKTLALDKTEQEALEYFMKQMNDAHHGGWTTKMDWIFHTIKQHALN
# testDescription: Inhibition of PI3K-alpha (unknown origin) by mobility shift assay
Below is a list of entries, each paired with its recorded pIC50 value.
Field pIC50 (float): negative decimal logarithm of the concentration in molar.

structureSmiles | pIC50
CC(C)(O)c1ccc(-c2cnc3c(n2)N(CC2CCOCC2)C(=O)CN3)cn1 | 5.42
COCCN1CC(=O)Nc2ncc(-c3ccc(C(C)(C)O)nc3)nc21 | 4.98

Enquiry: Which value of pIC50 has been reported for `CC(C)(O)c1ccc(-c2cnc3c(n2)N([C@H]2CC[C@@H](O)CC2)C(=O)CN3)cn1` in the records?
Return: 5.55

Enquiry: Which value of pIC50 has been reported for `CC(C)(O)c1ccc(-c2cnc3c(n2)N(C2CCOCC2)C(=O)CN3)cn1` in the records?
Return: 5.49

Enquiry: Which value of pIC50 has been reported for `Cc1cc(-c2nc[nH]n2)ccc1-c1cnc2c(n1)N(CCC1CCOCC1)CC(=O)N2` in the records?
Return: 6.70

Enquiry: Which value of pIC50 has been reported for `CO[C@H]1CC[C@@H](N2CC(=O)Nc3ncc(-c4ccc(C(C)(C)O)nc4)nc32)CC1` in the records?
Return: 4.95

Enquiry: Which value of pIC50 has been reported for `CC(C)(O)c1ccc(-c2cnc3c(n2)N([C@H]2CC[C@H](O)CC2)C(=O)CN3)cn1` in the records?
Return: 5.72

###

# testDescription: Cmax in rat at 5 mg/kg, po
# Type: ADME, organism-based
# Parameters: dose 5 mg/kg, route oral
# conditionNotes: in vivo
Lab note - cut at 2000 nM for Cmax: class 1 if strictly below, class 0 if not.

Look over these answered cases.
structureSmiles | groupLabel
CO[C@H]1CC[C@H](N2C(=O)CNc3ncc(-c4ccc(C(C)(C)O)nc4)nc32)CC1 | class 0
CC(C)(O)c1ccc(-c2cnc3c(n2)N(CC2CCOCC2)C(=O)CN3)cn1 | class 1
CC(C)(O)c1ccc(-c2cnc3c(n2)N(CCC2CCOCC2)CC(=O)N3)cn1 | class 1
CC(C)(O)c1ccc(-c2cnc3[nH]c(=O)n(CCC4CCOCC4)c3n2)cn1 | class 1

Enquiry: Confirm or reject: Cmax of `CC(C)(O)c1ccc(-c2cnc3c(n2)N([C@H]2CC[C@H](O)CC2)C(=O)CN3)cn1` lies strictly below 2000 nM
Return: class 0

###

# testDescription: Metabolic stability in rat S9 fraction assessed as compound remaining measured at 60 mins
# Format: ADME
# conditionNotes: read-out: Stability
measuredProperty: remaining at 1 h (%)
Give the value in % but do not write % after it.

Solved entries:
structureSmiles | resultUnit | remaining at 1 h
CC(C)(O)c1ccc(-c2cnc3c(n2)N(CC2CCOCC2)C(=O)CN3)cn1 | % | 83
CC(C)(O)c1ccc(-c2cnc3c(n2)N(CC2CCCCC2)CC(=O)N3)cn1 | % | 16
CC(C)(O)c1ccc(-c2cnc3c(n2)N(CC2CCOCC2)CC(=O)N3)cn1 | % | 100
CC(C)(O)c1ccc(-c2cnc3c(n2)N(CCC2CCOCC2)CC(=O)N3)cn1 | % | 95

Enquiry: Which value of remaining at 1 h has been reported for `O=c1[nH]c2ncc(-c3ccc(-c4nc[nH]n4)cc3)nc2n1CCC1CCOCC1` in the records?
Return: 93

###

# Species: Mus musculus
# testDescription: animal or person
# conditionNotes: PC-3, po, 24 h, read-out: INH
measuredProperty: inhibition in vivo at 100 mg/kg (%)
Give the value in % but do not write % after it.

structureSmiles | inhibition in vivo at 100 mg/kg, %
CO[C@H]1CC[C@H](CN2CC(=O)Nc3ncc(-c4ccc(C(C)(C)O)nc4)nc32)CC1 | 0
CC(C)(O)c1ccc(-c2cnc3c(n2)N(CC2CCOCC2)C(=O)CN3)cn1 | 91

Enquiry: Which value of inhibition in vivo at 100 mg/kg has been reported for `CO[C@H]1CC[C@H](N2C(=O)CNc3ncc(-c4ccc(C(C)(C)O)nc4)nc32)CC1` in the records?
Return: 91
